Molecular target: Cellular tumor antigen p53 (Homo sapiens)
Experiment: TOX21_p53_BLA_p4_ratio: Tox21 HCT-116 p53 Agonism Beta-lactamase Assay, Ratio, Phase 4 (AID 2283601)
Records with an inconclusive call do not appear. Activity calls are given as the source filed them. How the source made its calls: active means hit-call score of the fitted dose curve at least 0.9, where 1 is the maximum; inconclusive means response in the unintended direction; inactive means score below 0.9.
Value Type: outcome

Example results:
# Compound, outcome
records = [
    ("NC(=O)COCCN1CCN(C(c2ccccc2)c2ccc(Cl)cc2)CC1 (configuration not stated)", "inactive"),
    ("CCN[C@@H]1C[C@H](N)[C@@H](OC2OC(CN)=CCC2N)[C@H](O)[C@H]1O[C@H]1OC[C@](C)(O)[C@H](NC)[C@H]1O (some centres not stated)", "inactive"),
    ("O=[N+]([O-])c1ccc2ncccc2c1", "inactive"),
    ("O=C(c1ccccc1)c1cc(Cl)ccc1O", "inactive"),
    ("CN(C)[C@@H]1C(=O)C(C(=O)NCN2CCCC2)=C(O)[C@@]2(O)C(=O)C3=C(O)c4c(O)cccc4[C@@](C)(O)C3C[C@@H]12 (some centres not stated)", "inactive"),
]

Note outcome for the compound shown: COc1cc(C)nc(-n2nc(C)cc2OC)n1
inactive

Note outcome for the compound shown: Cc1ncc([N+](=O)[O-])n1CC(C)O (configuration not stated)
inactive
